assay.details: Bioavailability and duration of action of (S)-AV1013
particulars: in vivo; share of the (S)-enantiomer dosed that is bioavailable
value.kind: bioavailability

[[record]]
compound = "CC(C)c1nn2ccccc2c1C(=O)[C@H](C)N [(S)-AV1013]"
endpoint_result = "> 70%"


====

assay.details: Rat pharmacokinetics of the enantiomers after oral dosing of racemic AV1013
Format: in vivo
particulars: male, Sprague-Dawley, plasma, po, 25 mg/kg, oral 25 mg/kg racemic AV1013, plasma, read-out: Cmax
value.kind: Cmax (ng/mL)

[[record]]
molecule = "CC(C)c1nn2ccccc2c1C(=O)[C@H](C)N [(S)-AV1013]"
unit_of_measurement = "ng/mL"
endpoint_result = 1260

